# EXPERIMENTAL PROTOCOL: Microsomal stability
# Type: in vitro ADME
# CONDITION DESCRIPTION: rat, liver microsomes
Quick list: CLint scaled at 1 µM per entry.
Write the value in mL/min/kg as a bare number.

{"columns": ["MOLECULE", "CLint scaled at 1 µM, mL/min/kg"],
 "data": [
  ["Cc1cc(S(=O)(=O)NCCO[C@H]2CC[C@H](CN3CCC(c4ccc5c(c4F)n(C)c(=O)n5C4CCC(=O)NC4=O)CC3)CC2)ccc1Nc1ncc(C(F)(F)F)c([C@H]2CC[C@@](C)(O)CC2)n1 (stereo partly drawn)", 26]
]}

Q. Given the molecule [2H][C@@](C)(COC1CCC(CN2CCN(c3ccc4c(c3F)n(C)c(=O)n4C3CCC(=O)NC3=O)CC2)CC1)NS(=O)(=O)c1ccc(Nc2ncc(C(F)(F)F)c(N3CCC[C@](C)(O)C3)n2)c(C)c1 (stereo partly drawn) , what is its reported CLint scaled at 1 µM?
A. 25
